Parameter: self-splicing fitness (ln). Scope: all listed entries.
# Test description: self-splicing fitness, log relative to wild type (ln ratio); higher = more splicing; Tetrahymena group I intron in knt gene, E. coli kanamycin selection, DiMSum; sequences stand for … in CUCUCU…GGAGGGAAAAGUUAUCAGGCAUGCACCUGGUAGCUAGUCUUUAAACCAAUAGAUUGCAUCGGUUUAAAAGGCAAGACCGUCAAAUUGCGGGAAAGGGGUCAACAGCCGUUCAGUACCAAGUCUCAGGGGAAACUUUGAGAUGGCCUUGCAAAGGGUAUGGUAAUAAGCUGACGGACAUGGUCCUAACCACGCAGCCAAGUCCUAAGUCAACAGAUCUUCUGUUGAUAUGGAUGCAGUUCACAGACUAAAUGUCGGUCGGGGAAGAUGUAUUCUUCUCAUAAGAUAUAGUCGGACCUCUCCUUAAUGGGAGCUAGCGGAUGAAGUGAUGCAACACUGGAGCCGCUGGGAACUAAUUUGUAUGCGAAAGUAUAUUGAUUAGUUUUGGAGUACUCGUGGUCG;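 note: selection with 25 µg/mL kanamycin versus none on LB agar overnight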
# Experimental setup: 30 °C

| Sequence string | self-splicing fitness (ln) |
| --- | --- |
| AUAUAGCAAUAUUACGGGGG | -2.92 |
| UCUAAGCAAUAUUACGGAGU | -2.04 |
| UUGGAGCAAUAUUACGUAAA | -2.9 |
| CGUAAGCAAUAUUACGAAGC | -2.95 |
| CCGUAGCAAUAUUACGUAAC | -4.68 |
| AACCAGCAAUAUUACGUCUC | -1.23 |
| ACCAAGCAAUAUUACGAGAU | -3.84 |
| GCGAAGCAAUAUUACGUGUU | -2.52 |

Measured values drawn from the supplement of paper PMC7877785 for this set.
